This section presents compounds with their documented Inhibition values.
- Test system: Plasmodium falciparum
- assay summary: GSK_TCMDC: Inhibition of Plasmodium falciparum 3D7 in whole red blood cells, using parasite LDH activity as an index of growth. Test compounds present at 2uM
- Format: functional
Number in %, nothing else.

1) Cc1ccc(/C=C/C(=O)NCCCCCN2CCN(C(=O)Nc3ccc(Cl)c(C(F)(F)F)c3)CC2)cc1: 93

Any idea what its Inhibition is? The compound is CC(CN1CCN(C)CC1)C(=O)Nc1ccc(-c2ccc(-c3nc4cc(F)ccc4[nH]3)cc2)cc1 (centres undefined) 100

Any idea what its Inhibition is? The compound is Cc1cccc2nc(-c3cccc(-c4cccc(CNCCNC(=O)c5ccnn5C)c4)c3)[nH]c12.O=C(O)C(F)(F)F 100

Any idea what its Inhibition is? The compound is Cn1cncc1C(=O)Nc1cccc(-c2cccc(-c3nc4cc(F)ccc4[nH]3)c2)c1 100

Any idea what its Inhibition is? The compound is CN1CCN(CC2(Nc3nccc(NCCc4cn(C)c5ccccc45)n3)CCCCC2)CC1 91

Any idea what its Inhibition is? The compound is CN1C(=O)C(=NN=C(S)N2CCOCC2)c2ccccc21 95

Any idea what its Inhibition is? The compound is Clc1ccc2c(NCc3ccccn3)ccnc2c1 99

Any idea what its Inhibition is? The compound is CNC(=O)c1cnc(Nc2ccc(OCC(O)CN(C)C)cc2)nc1Nc1cccc(OC(C)C)c1.O=C(O)C(F)(F)F (centres undefined) 100

Any idea what its Inhibition is? The compound is O=C(CN1CCN(C(=O)c2ccco2)CC1)Nc1ccccc1Br 97

====

This section presents compounds with their documented Inhibition values.
- System: Plasmodium falciparum
- assay summary: GSK_TCMDC: Inhibition of Plasmodium falciparum Dd2 in whole red blood cells, using parasite LDH activity as an index of growth. Test compounds present at 2uM
- Format: functional
Number in %, nothing else.

Solved cases (3 shown):
1) COc1cccc(C2(c3cccc(OC)c3)N=C(N)N(CCCc3ccccc3)C2=O)c1.O=CO: 93
2) Cc1ccc2[nH]ncc2c1N(CC1CCCCC1)c1ccnc(Nc2ccc(OCC(O)CN3CC=CCC3)cc2)n1.O=CO (stereo not given): 79
3) COc1cc2c(Nc3ccc(Br)cc3F)ncnc2cc1OCC1CCN(C)CC1.Cl: 16

Any idea what its Inhibition is? The compound is Cc1cnc(N2CCN(CCCN3CCCC3)CC2)nc1Oc1ccc(-n2ccnc2)cc1.O=C(O)C(F)(F)F 82

Any idea what its Inhibition is? The compound is O=C(O)C(F)(F)F.Oc1ccc(CCNc2nc(NCCOc3ccccc3-c3ccccc3)nc(N3CCNCC3)n2)cc1 17

====

- System: Plasmodium falciparum
- assay summary: GSK_TCMDC: Inhibition of Plasmodium falciparum Dd2 in whole red blood cells, using parasite LDH activity as an index of growth. Test compounds present at 2uM
- Type: functional
This section presents compounds with their documented Inhibition values.
Number in %, nothing else.

1) Cc1noc(C)c1-c1ccc(C(=C2CCCCCC2)c2ccc(O)cc2)cc1: 96
2) COc1cc(Cc2cnc(N)nc2N)ccc1OCc1ccc(-c2ccccc2C#N)cc1: 3

Any idea what its Inhibition is? The compound is Cc1cc(N[C@@H](Cc2ccccc2)C(=O)NCCOc2ccccc2)nc(Nc2ccccc2)n1.O=C(O)C(F)(F)F 63

Any idea what its Inhibition is? The compound is Cc1c(Cc2ccccc2Br)cnc2nc(N)nc(N)c12.Cl 97

Any idea what its Inhibition is? The compound is CCCNCc1c(O)ccc2c(CNCCC)c(O)ccc12.Cl 9

Any idea what its Inhibition is? The compound is c1ccc2[nH]c(-c3ccc(-c4ccc(CN5CCCCC5)cc4)s3)nc2c1 69

====

- System: Plasmodium falciparum
- assay summary: GSK_TCMDC: Inhibition of Plasmodium falciparum Dd2 in whole red blood cells, using parasite LDH activity as an index of growth. Test compounds present at 2uM
- Type: functional
endpoint: Inhibition (%)
Number in %, nothing else.

Solved cases (8 shown):
1) CC(=O)Nc1ccc(S(=O)(=O)N(Cc2cccc(Oc3ccccc3)c2)C2CCN(C/C=C(\C)CCC=C(C)C)CC2)cc1: 99
2) CN1CCN(C(C(=O)NCc2cc(Cl)cc(Cl)c2)c2ccc(NC(=O)Nc3ccccc3)cc2)CC1.O=C(O)C(F)(F)F (centres undefined): 43
3) O=C(Nc1ccc(-c2ccccc2)cc1)Nc1cccc(Cn2ncc(N3CCCNCC3)c(Cl)c2=O)c1: 52
4) Fc1ccc(NC(=S)NCCc2ccccc2)cc1: 0
5) CC(C)C(C)(C#N)NC(=O)CSc1nc2ccc([N+](=O)[O-])cc2s1 (centres undefined): 81
6) Cc1c(Cl)ccc2c(C(=O)Nc3ccncc3)cc(-c3cccnc3)nc12: 83
7) COc1ccc2nccc(NCC3(O)CCC(NCc4cc5c(cn4)OCCO5)CC3)c2n1.Cl (centres undefined): 23
8) CCc1ccc(O)c(-c2cc(C(=O)Nc3ccc(OC)c(Cl)c3)[nH]n2)c1: 97

Any idea what its Inhibition is? The compound is O=C(Cc1c[nH]cn1)Nc1cccc(-c2ccc(-c3nc4cc(C(F)(F)F)ccc4[nH]3)cc2)c1 99

Any idea what its Inhibition is? The compound is Cc1ncccc1-c1cccc2c(NC(=O)Nc3ccc4nccc(N5CCN(C)CC5)c4c3)cccc12.Cl 96

Any idea what its Inhibition is? The compound is O=C(Nc1ccc(Cl)c(Cl)c1)N1CCC(CNCc2cccc([N+](=O)[O-])c2)CC1.O=C(O)C(F)(F)F 6

Any idea what its Inhibition is? The compound is Cc1cccc(CCCNC(=O)CN(c2cccc(C(F)(F)F)c2)S(=O)(=O)c2ccc(C(F)(F)F)cc2)c1 94

====

This section presents molecules with their documented Inhibition values.
- System: Plasmodium falciparum
- assay summary: GSK_TCMDC: Inhibition of Plasmodium falciparum Dd2 in whole red blood cells, using parasite LDH activity as an index of growth. Test compounds present at 2uM
- Type: functional
Number in %, nothing else.

Any idea what Inhibition came out for CC(C)(C)OC(=O)NCc1ccc(Nc2nnc(-c3cccc(OCC(=O)NCc4cc(C(F)(F)F)cc(C(F)(F)F)c4)c3)o2)cc1 on Plasmodium falciparum? 19

Any idea what Inhibition came out for COc1ccccc1CC1CCCN(C2CCC(NC(=O)c3cc4ccccc4[nH]3)CC2)C1 (stereo not drawn) on Plasmodium falciparum? 21

Any idea what Inhibition came out for O=C(Nc1cccc(Cl)c1Cl)Nc1ccnc2ccccc12 on Plasmodium falciparum? 47

Any idea what Inhibition came out for CN1CCN(c2cc3c(cc2Cl)CCN3C(=O)Cc2ccc(Cl)c(NC(=O)Nc3cccc([N+](=O)[O-])c3)c2)CC1 on Plasmodium falciparum? 51

Any idea what Inhibition came out for Cc1[nH]c(C)c(-c2ccc(CCc3ccc(N)cc3)cc2)c(=O)c1Cl on Plasmodium falciparum? 97

Any idea what Inhibition came out for CCCC1N=C(N)N=C(N)N1c1ccccc1.Cl (stereo not drawn) on Plasmodium falciparum? 0

Any idea what Inhibition came out for O=C(Nc1cccc(CN2CCCN(Cc3ccsc3)CC2)c1)c1cc2ccccc2s1.O=C(O)C(F)(F)F on Plasmodium falciparum? 29

Any idea what Inhibition came out for CC1(C)N=C(NC(=O)c2cc([N+](=O)[O-])cc([N+](=O)[O-])c2)N=C(N)N1OCc1cccc2ccccc12 on Plasmodium falciparum? 20

Any idea what Inhibition came out for C/C=C/COc1ccc(-c2c(C)[nH]c(C)c(Cl)c2=O)cc1 on Plasmodium falciparum? 97

====

- System: HepG2
- assay summary: GSK_TCMDC: Percent inhibition of human HepG2 cell line. Test compounds present at 10uM.
- Assay type: functional
Cut-off 10% on Inhibition, inclusive. At or above means yes (1); below means no (0).

1) O=C(Nc1cccc(-c2ccc(-c3nc4cc(F)ccc4[nH]3)s2)c1)c1ccncc1: yes (1)
2) NCC1CCCN1Cc1ccc(-c2ccc(-c3nc4cc(F)ccc4[nH]3)cc2)cc1.O=C(O)C(F)(F)F (stereo not drawn): yes (1)
3) Cc1cc(NC(=O)c2cccs2)ccc1OC1CCN(Cc2ccc(C#N)cc2)CC1.O=C(O)C(F)(F)F: yes (1)

Check if Inhibition >= 10% (inclusive). Item: COc1ccc2nccc([C@@H](O)CN3CCC(NCc4cc5c(Cl)cccc5[nH]4)CC3)c2c1.O=C(O)C(=O)O yes (1)

Check if Inhibition >= 10% (inclusive). Item: O=C(Nc1ccc(I)cc1)Nc1ccc(Cn2ncc(N3CCCNCC3)c(Cl)c2=O)cc1.O=C(O)C(F)(F)F yes (1)

Check if Inhibition >= 10% (inclusive). Item: O=C(Nc1ccccc1C(F)(F)F)Nc1nn(Cc2c(F)cccc2Cl)cc1Br no (0)

Check if Inhibition >= 10% (inclusive). Item: Cl.O=C(/C=C/c1ccccc1F)NC1CCC(CCN2CCc3ccc(-c4cccnc4)cc3CC2)CC1 (stereo not drawn) yes (1)

Check if Inhibition >= 10% (inclusive). Item: COCCNC(=O)C(CNC(=O)c1ccc2c(c1)OCO2)NC(=O)c1ccc(-c2ccccc2)cc1 (stereo not drawn) yes (1)

Check if Inhibition >= 10% (inclusive). Item: CCC(CC)n1c(COC)cc2c3c(N)nc(N)nc3ccc21 yes (1)

Check if Inhibition >= 10% (inclusive). Item: O=C(Nc1cccc(CN2CCCN(Cc3ncc[nH]3)CC2)c1)c1cc2ccccc2s1.O=C(O)C(F)(F)F yes (1)

Check if Inhibition >= 10% (inclusive). Item: COc1ccc(NC(=O)/C=C/c2ccccc2Cl)cc1OCCN1CCC(N2CCCCC2)CC1 no (0)

Check if Inhibition >= 10% (inclusive). Item: Cn1cncc1C(=O)NC1CCN(c2ccnc(Nc3ccc(F)cc3)n2)C1 (stereo not drawn) no (0)

Check if Inhibition >= 10% (inclusive). Item: C=CCOC(=O)N1CCC(CNCc2cccc(-c3ccc(-c4nc5cccc(C)c5[nH]4)s3)c2)C1.O=C(O)C(F)(F)F (stereo not drawn) yes (1)

Check if Inhibition >= 10% (inclusive). Item: COc1ccc2nccc([C@@H](O)CN3CCC(NC(=O)/C=C/c4ccc(F)c5ccccc45)CC3)c2c1 yes (1)

Check if Inhibition >= 10% (inclusive). Item: COc1ccc(-c2cnc(N)c(-c3ccc(O)c(OC)c3)c2)cn1 yes (1)

Check if Inhibition >= 10% (inclusive). Item: CCOc1ccccc1N1CCN(CCCNC(=O)/C(=C/C=C/c2cc3cc(Cl)c(Cl)cc3[nH]2)OC)CC1 yes (1)

Check if Inhibition >= 10% (inclusive). Item: COc1ccc(CN2CCCN(Cc3cccc(C(=O)Nc4ccc(C)c(F)c4)c3)CC2)cc1.O=C(O)C(F)(F)F yes (1)
